- test_target: MAdCAM-1/α4β7 integrin (Homo sapiens, UniProt P13612+P26010)
- Construct: a human B-cell line known to express α4β7 integrin; endogenous in cells
- measurement_notes: Evaluation test (1) for MAdCAM-1/α4β7 integrin binding inhibitory activity in the presence of serum (RPMI-8866 cell binding to MAdCAM-1/Fc)
- measurement_setup: RPMI-8866 cells, recombinant mouse MAdCAM-1/Fc, human serum at final concentration of 50%; read-out: α4β7 Serum Activity rank when α4β7 serum was added
pIC50: −log10 of the molar value.

# chemical_string, pIC50
records = [
    ("Cc1cn(-c2ccc(S(=O)(=O)Nc3cc(F)c(C(=O)N[C@@H](Cc4ccc(-c5c(C)n(C)c(=O)n(C)c5=O)cc4)C(=O)O)cc3F)nc2)nn1", "7.30 to 8.00"),
    ("Cn1c(=O)n(-c2ccc(C[C@H](NC(=O)c3cc(F)c(NS(=O)(=O)c4ccc(-c5cnc(C6CCOCC6)nc5)cc4)cc3F)C(=O)O)nc2)c(=O)c2ccncc21", "6.70 to 7.30"),
    ("Cc1c(-c2ccc(C[C@H](NC(=O)c3cc(F)c(NS(=O)(=O)c4ccc(C5CCOCC5)cc4)cc3F)C(=O)O)cc2)c(=O)n(C)c(=O)n1C", "< 6.70"),
]

###

- test_target: MAdCAM-1/α4β7 integrin (Homo sapiens, UniProt P13612+P26010)
- Construct: a human B-cell line known to express α4β7 integrin; endogenous in cells
- Sequence (P13612 34-1032): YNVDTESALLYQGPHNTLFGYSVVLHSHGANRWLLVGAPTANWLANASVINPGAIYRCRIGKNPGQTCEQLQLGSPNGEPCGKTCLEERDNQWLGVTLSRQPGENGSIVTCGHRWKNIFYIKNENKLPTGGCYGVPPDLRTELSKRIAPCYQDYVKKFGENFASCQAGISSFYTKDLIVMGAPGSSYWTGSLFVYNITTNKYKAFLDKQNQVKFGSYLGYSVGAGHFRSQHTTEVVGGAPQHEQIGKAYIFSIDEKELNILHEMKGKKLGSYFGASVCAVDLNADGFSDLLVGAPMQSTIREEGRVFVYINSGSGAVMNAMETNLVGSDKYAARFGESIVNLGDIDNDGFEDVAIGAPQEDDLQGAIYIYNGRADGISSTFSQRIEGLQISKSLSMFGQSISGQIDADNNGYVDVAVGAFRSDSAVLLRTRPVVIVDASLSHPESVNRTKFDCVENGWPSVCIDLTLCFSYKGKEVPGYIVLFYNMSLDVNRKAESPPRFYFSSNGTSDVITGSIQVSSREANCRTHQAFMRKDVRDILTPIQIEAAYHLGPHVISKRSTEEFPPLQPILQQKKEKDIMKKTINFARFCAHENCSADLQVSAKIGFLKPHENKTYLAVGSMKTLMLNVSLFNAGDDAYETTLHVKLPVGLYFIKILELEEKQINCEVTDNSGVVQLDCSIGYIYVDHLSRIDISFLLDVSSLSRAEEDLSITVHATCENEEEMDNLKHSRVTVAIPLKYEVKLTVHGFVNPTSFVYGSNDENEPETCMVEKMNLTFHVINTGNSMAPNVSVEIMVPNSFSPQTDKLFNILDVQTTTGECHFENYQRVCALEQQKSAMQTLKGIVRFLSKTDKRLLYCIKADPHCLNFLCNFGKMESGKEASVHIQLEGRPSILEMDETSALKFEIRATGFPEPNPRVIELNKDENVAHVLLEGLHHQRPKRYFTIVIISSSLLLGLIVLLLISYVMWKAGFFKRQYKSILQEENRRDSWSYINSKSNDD
- Sequence (P26010 20-798): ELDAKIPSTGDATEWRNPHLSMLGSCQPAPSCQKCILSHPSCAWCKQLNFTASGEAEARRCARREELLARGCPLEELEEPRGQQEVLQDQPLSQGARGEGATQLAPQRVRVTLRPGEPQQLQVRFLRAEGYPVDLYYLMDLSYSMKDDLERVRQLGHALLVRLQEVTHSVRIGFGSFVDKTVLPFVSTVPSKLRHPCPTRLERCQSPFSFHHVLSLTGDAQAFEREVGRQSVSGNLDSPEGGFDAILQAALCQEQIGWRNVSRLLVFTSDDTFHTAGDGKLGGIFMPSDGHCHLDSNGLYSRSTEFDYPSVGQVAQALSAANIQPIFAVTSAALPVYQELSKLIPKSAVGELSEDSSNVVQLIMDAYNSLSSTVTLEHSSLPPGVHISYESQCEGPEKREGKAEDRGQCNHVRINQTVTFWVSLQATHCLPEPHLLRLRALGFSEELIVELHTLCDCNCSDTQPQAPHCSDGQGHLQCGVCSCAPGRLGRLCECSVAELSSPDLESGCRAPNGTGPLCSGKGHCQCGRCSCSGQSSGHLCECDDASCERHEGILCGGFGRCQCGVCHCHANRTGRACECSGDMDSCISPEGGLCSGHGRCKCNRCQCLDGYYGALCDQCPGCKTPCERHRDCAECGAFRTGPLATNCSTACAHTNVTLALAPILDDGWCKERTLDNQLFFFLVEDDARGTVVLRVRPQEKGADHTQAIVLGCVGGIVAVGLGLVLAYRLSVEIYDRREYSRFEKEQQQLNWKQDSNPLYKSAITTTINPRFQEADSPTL
- measurement_notes: Evaluation test (1) for MAdCAM-1/α4β7 integrin binding inhibitory activity in the presence of serum (RPMI-8866 cell binding to MAdCAM-1/Fc)
- measurement_setup: RPMI-8866 cells, recombinant mouse MAdCAM-1/Fc, human serum at final concentration of 50%; read-out: α4β7 Serum Activity rank when α4β7 serum was added
Entries and their measured IC50 follow.

# chemical_string, test_target, IC50
records = [
    ("COCc1ncc(-c2ccc(S(=O)(=O)Nc3cc(F)c(C(=O)N[C@@H](Cc4ccc(-n5c(=O)c6ccncc6n(C)c5=O)nc4)C(=O)O)cc3F)cc2)cn1", "MAdCAM-1/α4β7 integrin (Homo sapiens, UniProt P13612+P26010)", "10 to 50 nM"),
    ("C=CCn1cc(-c2ccc(S(=O)(=O)Nc3cc(F)c(C(=O)N[C@@H](Cc4ccc(-n5c(=O)c6ccncc6n(C)c5=O)cn4)C(=O)O)cc3F)cc2)cnc1=O", "MAdCAM-1/α4β7 integrin (Homo sapiens, UniProt P13612+P26010)", "10 to 50 nM"),
    ("Cc1c(-c2ccc(C[C@H](NC(=O)c3cc(F)c(NS(=O)(=O)c4ccc(-c5cnc(N6CCC6)nc5)cc4)cc3F)C(=O)O)cc2)c(=O)n(C)c(=O)n1C", "MAdCAM-1/α4β7 integrin (Homo sapiens, UniProt P13612+P26010)", "50 to 200 nM"),
]

###

- test_target: MAdCAM-1/α4β7 integrin (Homo sapiens, UniProt P13612+P26010)
- Construct: a human B-cell line known to express α4β7 integrin; endogenous in cells; host or cells: RPMI-8866 (human B-cell line)
- measurement_notes: Evaluation test (1) for MAdCAM-1/α4β7 integrin binding inhibitory activity in the presence of serum (RPMI-8866 cell binding to MAdCAM-1/Fc)
- Type: cell-based
- measurement_setup: RPMI-8866 cells, recombinant mouse MAdCAM-1/Fc, human serum at final concentration of 50%; read-out: α4β7 Serum Activity rank when α4β7 serum was added
property_name: IC50

# chemical_string, result
records = [
    ("Cc1c(-c2ccc(C[C@H](NC(=O)c3cc(F)c(NS(=O)(=O)c4ccc(-c5cnc(C(C)C)nc5)cc4)cc3F)C(=O)O)cc2)c(=O)n(C)c(=O)n1C", "0.05 to 0.2 µM"),
    ("CN(C)CCc1ncc(-c2ccc(S(=O)(=O)Nc3cc(F)c(C(=O)N[C@@H](Cc4ccc(-n5c(=O)c6ccncc6n(C)c5=O)cn4)C(=O)O)cc3F)cc2)cn1", "0.01 to 0.05 µM"),
    ("Cc1c(-c2ccc(C[C@H](NC(=O)c3cc(F)c(NS(=O)(=O)c4ccc(-c5cnc(COC(C)C)nc5)cc4)cc3F)C(=O)O)cc2)c(=O)n(C)c(=O)n1C", "0.05 to 0.2 µM"),
]

###

- test_target: MAdCAM-1/α4β7 integrin (Homo sapiens, UniProt P13612+P26010)
- Construct: a human B-cell line known to express α4β7 integrin; endogenous in cells
- Sequence (P13612 34-1032): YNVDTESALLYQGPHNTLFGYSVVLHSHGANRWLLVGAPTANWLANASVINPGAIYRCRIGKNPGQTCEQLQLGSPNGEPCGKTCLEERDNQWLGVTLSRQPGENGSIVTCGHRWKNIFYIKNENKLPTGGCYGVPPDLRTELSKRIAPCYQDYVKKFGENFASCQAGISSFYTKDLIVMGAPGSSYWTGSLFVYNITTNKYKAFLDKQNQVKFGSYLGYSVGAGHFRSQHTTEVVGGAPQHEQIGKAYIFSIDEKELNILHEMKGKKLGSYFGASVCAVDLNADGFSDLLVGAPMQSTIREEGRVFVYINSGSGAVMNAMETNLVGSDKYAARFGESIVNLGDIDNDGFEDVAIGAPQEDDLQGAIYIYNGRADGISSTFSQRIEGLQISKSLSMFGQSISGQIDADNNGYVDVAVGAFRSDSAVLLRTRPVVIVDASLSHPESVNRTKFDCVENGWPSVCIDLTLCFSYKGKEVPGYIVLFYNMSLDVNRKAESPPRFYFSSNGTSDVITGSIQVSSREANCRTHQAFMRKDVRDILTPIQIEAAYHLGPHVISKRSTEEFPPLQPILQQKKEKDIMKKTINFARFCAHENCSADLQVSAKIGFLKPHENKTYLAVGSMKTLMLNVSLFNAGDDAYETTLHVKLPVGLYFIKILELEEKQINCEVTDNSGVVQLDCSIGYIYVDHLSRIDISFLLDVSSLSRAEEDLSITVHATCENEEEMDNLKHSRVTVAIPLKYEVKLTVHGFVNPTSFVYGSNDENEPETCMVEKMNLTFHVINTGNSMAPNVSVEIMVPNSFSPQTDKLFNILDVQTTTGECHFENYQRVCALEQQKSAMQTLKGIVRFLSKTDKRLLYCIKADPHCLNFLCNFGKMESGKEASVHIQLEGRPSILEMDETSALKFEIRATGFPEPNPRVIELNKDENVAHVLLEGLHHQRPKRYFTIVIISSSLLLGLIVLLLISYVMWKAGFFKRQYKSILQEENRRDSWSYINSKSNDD
- Sequence (P26010 20-798): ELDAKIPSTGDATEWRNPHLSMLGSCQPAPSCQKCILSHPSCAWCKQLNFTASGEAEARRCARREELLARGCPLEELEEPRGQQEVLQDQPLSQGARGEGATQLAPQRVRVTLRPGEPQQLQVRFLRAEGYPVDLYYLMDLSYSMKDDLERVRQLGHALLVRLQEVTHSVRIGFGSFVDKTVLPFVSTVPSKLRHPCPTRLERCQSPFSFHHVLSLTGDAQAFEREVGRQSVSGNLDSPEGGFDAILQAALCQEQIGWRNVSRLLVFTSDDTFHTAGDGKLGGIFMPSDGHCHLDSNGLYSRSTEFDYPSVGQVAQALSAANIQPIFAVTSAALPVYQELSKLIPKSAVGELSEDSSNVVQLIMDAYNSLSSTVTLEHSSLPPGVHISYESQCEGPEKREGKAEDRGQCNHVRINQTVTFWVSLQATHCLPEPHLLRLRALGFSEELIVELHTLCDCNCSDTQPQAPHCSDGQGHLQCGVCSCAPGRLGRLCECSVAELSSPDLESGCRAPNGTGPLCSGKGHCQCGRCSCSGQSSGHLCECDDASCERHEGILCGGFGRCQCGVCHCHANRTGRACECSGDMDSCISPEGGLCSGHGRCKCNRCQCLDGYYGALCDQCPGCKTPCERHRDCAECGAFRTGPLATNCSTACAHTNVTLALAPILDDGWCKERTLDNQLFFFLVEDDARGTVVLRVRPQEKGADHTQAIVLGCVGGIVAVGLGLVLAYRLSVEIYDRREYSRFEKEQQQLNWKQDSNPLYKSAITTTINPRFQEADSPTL
- measurement_notes: Evaluation test (1) for MAdCAM-1/α4β7 integrin binding inhibitory activity in the presence of serum (RPMI-8866 cell binding to MAdCAM-1/Fc)
- measurement_setup: RPMI-8866 cells, recombinant mouse MAdCAM-1/Fc, human serum at final concentration of 50%; read-out: α4β7 Serum Activity rank when α4β7 serum was added
Entries and their measured IC50 follow.
property_name: IC50

# compound, test_target, property_name, result
rows = [
    ("Cc1c(-c2ccc(C[C@H](NC(=O)c3cc(F)c(NS(=O)(=O)c4ccco4)cc3F)C(=O)O)cc2)c(=O)n(C)c(=O)n1C [Example 38]", "MAdCAM-1/α4β7 integrin (Homo sapiens, UniProt P13612+P26010)", "IC50", "10 to 50 nM"),
    ("CC(C)OCc1ncc(-c2ccc(S(=O)(=O)Nc3cc(F)c(C(=O)N[C@@H](Cc4ccc(-n5c(=O)c6cncnc6n(C)c5=O)cn4)C(=O)O)cc3F)cc2)cn1 [Example 43]", "MAdCAM-1/α4β7 integrin (Homo sapiens, UniProt P13612+P26010)", "IC50", "> 200 nM"),
    ("CC(C)OCc1ncc(-c2ccc(S(=O)(=O)Nc3cc(F)c(C(=O)N[C@@H](Cc4ccc(-n5c(=O)c6ccncc6n(C)c5=O)cc4)C(=O)O)cc3F)cc2)cn1 [Example 85]", "MAdCAM-1/α4β7 integrin (Homo sapiens, UniProt P13612+P26010)", "IC50", "10 to 50 nM"),
    ("CC(C)OCc1ncc(-c2ccc(S(=O)(=O)Nc3cc(F)c(C(=O)N[C@@H](Cc4ccc(-n5c(=O)cc(C(F)(F)F)n(C)c5=O)cc4)C(=O)O)cc3F)cc2)cn1 [Example 44]", "MAdCAM-1/α4β7 integrin (Homo sapiens, UniProt P13612+P26010)", "IC50", "50 to 200 nM"),
    ("CCc1ncc(-c2ccc(S(=O)(=O)Nc3c(F)c(F)c(C(=O)N[C@@H](Cc4ccc(-c5c(C)n(C)c(=O)n(C)c5=O)cc4)C(=O)O)c(F)c3F)cc2)cn1 [Example 45]", "MAdCAM-1/α4β7 integrin (Homo sapiens, UniProt P13612+P26010)", "IC50", "10 to 50 nM"),
]
